# studyTarget: PSG G322A G335A (PSD-95)
# experimentalProtocol: FP displacement (competition) of FITC-15 AA CRIPT by library peptide, IC50 and Ki
# testSettings: read-out: Ki (µM), PSG G322A G335A; FP displacement of FITC-15 AA CRIPT probe by PSD library peptide; protein PSG G322A G335A
resultType: Ki (µM)
// note: answer is a bare numeric in µM

// returns reported Ki for input CC(=O)N[C@@H](Cc1ccc(O)cc1)C(=O)N[C@@H](CC(C)C)C(=O)N[C@@H](C)C(=O)N[C@@H](CC(=O)O)C(=O)N[C@@H](CCC(=O)O)C(=O)N[C@H](C(=O)N[C@@H](CO)C(=O)N[C@@H](C)C(=O)N[C@@H](CO)C(=O)N[C@@H](CC(C)C)C(=O)N[C@@H](C)C(=O)N[C@@H](CCCCN)C(=O)N[C@@H](CCC(N)=O)C(=O)NCC(=O)N[C@@H](CC(C)C)C(=O)O)C(C)C
76

// returns reported Ki for input CC(=O)N[C@@H](Cc1ccc(O)cc1)C(=O)N[C@@H](Cc1ccccc1)C(=O)N[C@H](C(=O)N[C@@H](Cc1ccc(O)cc1)C(=O)N[C@@H](Cc1c[nH]cn1)C(=O)N[C@H](C(=O)N[C@@H](CO)C(=O)N[C@@H](CC(=O)O)C(=O)NCC(=O)N[C@@H](CC(=O)O)C(=O)N[C@@H](C)C(=O)N[C@@H](CC(C)C)C(=O)N[C@@H](CC(C)C)C(=O)N[C@@H](CC(C)C)C(=O)N[C@@H](CC(C)C)C(=O)O)[C@@H](C)O)[C@@H](C)O
256

// returns reported Ki for input CC[C@H](C)[C@H](NC(=O)[C@H](CC(N)=O)NC(=O)CNC(=O)CNC(=O)[C@H](CO)NC(=O)[C@H](Cc1ccc(O)cc1)NC(=O)[C@H](CCC(=O)O)NC(=O)[C@@H]1CCCN1C(=O)[C@H](Cc1ccc(O)cc1)NC(C)=O)C(=O)N[C@H](C(=O)N[C@@H](CCCNC(=N)N)C(=O)N[C@H](C(=O)N[C@@H](CO)C(=O)N[C@@H](C)C(=O)N[C@@H](CC(C)C)C(=O)O)C(C)C)C(C)C
119

// returns reported Ki for input CC(=O)N[C@@H](Cc1ccc(O)cc1)C(=O)N[C@@H](CC(=O)O)C(=O)N[C@@H](CCCCN)C(=O)N[C@@H](CCCNC(=N)N)C(=O)N[C@@H](CC(=O)O)C(=O)N[C@@H](CO)C(=O)N[C@@H](CCC(=O)O)C(=O)N[C@@H](CCC(=O)O)C(=O)N[C@@H](CCC(=O)O)C(=O)N[C@@H](CO)C(=O)N[C@@H](CCC(=O)O)C(=O)N[C@@H](CO)C(=O)N[C@H](C(=O)N[C@@H](C)C(=O)N[C@@H](CC(C)C)C(=O)O)[C@@H](C)O
327

// returns reported Ki for input CC(=O)N[C@@H](Cc1ccc(O)cc1)C(=O)N[C@@H](CC(=O)O)C(=O)N[C@@H](CO)C(=O)N[C@H](C(=O)N[C@@H](CCC(=O)O)C(=O)N[C@@H](CCC(N)=O)C(=O)N[C@@H](CO)C(=O)N[C@@H](CC(=O)O)C(=O)N[C@H](C(=O)N[C@@H](CCCNC(=N)N)C(=O)N[C@@H](Cc1ccccc1)C(=O)N[C@@H](CO)C(=O)N[C@@H](CO)C(=O)N[C@@H](C)C(=O)N[C@H](C(=O)O)C(C)C)C(C)C)[C@@H](C)O
82

----------
# studyTarget: PSG G322A (PSD-95)
# experimentalProtocol: FP displacement (competition) of FITC-15 AA CRIPT by library peptide, IC50 and Ki
# testSettings: read-out: Ki (µM), PSG G322A; FP displacement of FITC-15 AA CRIPT probe by acetylated PSD library peptide
Exercise: for every item that follows, state its recorded Ki.
// note: answer is a bare numeric in µM

// returns reported Ki for input CC(=O)N[C@@H](Cc1ccc(O)cc1)C(=O)N[C@@H](C)C(=O)N[C@@H](CO)C(=O)N[C@@H](CC(N)=O)C(=O)N[C@H](C(=O)N[C@@H](CC(N)=O)C(=O)N[C@H](C(=O)N[C@@H](CC(C)C)C(=O)N[C@@H](CC(N)=O)C(=O)N[C@@H](CCCNC(=N)N)C(=O)N[C@@H](CCCCN)C(=O)N[C@H](C(=O)N[C@H](C(=O)N1CCC[C@H]1C(=O)N[C@H](C(=O)O)C(C)C)[C@@H](C)O)[C@@H](C)O)[C@@H](C)O)[C@@H](C)O [CCG8]
6

// returns reported Ki for input CC(=O)N[C@@H](Cc1ccc(O)cc1)C(=O)N[C@@H](CC(C)C)C(=O)N1CCC[C@H]1C(=O)N[C@@H](CC(C)C)C(=O)N[C@@H](CC(=O)O)C(=O)N[C@H](C(=O)N[C@@H](CCC(N)=O)C(=O)N[C@@H](CCC(=O)O)C(=O)NCC(=O)N[C@@H](CC(=O)O)C(=O)N[C@@H](Cc1ccccc1)C(=O)N[C@@H](CCC(N)=O)C(=O)N[C@H](C(=O)N[C@@H](CCC(=O)O)C(=O)N[C@H](C(=O)O)C(C)C)[C@@H](C)O)C(C)C [AGRB3]
148

// returns reported Ki for input CC(=O)N[C@@H](Cc1ccc(O)cc1)C(=O)N[C@H](C(=O)N[C@@H](CCC(=O)O)C(=O)N[C@@H](CO)C(=O)N[C@@H](CC(C)C)C(=O)N[C@@H](CO)C(=O)N[C@@H](CO)C(=O)N[C@@H](CCC(=O)O)C(=O)N[C@@H](CO)C(=O)N[C@H](C(=O)N[C@@H](C)C(=O)N[C@H](C(=O)N[C@@H](CO)C(=O)N1CCC[C@H]1C(=O)N[C@H](C(=O)O)C(C)C)[C@@H](C)O)[C@@H](C)O)C(C)C [TNR16]
376

----------
# studyTarget: PSG G335A (PSD-95)
# experimentalProtocol: FP displacement (competition) of FITC-15 AA CRIPT by library peptide, IC50 and Ki
# testSettings: read-out: IC50 (µM), PSG G335A; FP displacement of FITC-15 AA CRIPT probe by acetylated PSD library peptide
Ends that are not written are not given here.
Rule for this label: rule met means IC50 is less than 1000 µM; rule not met means IC50 is at least 1000 µM.

Please state whether IC50 is below 1000 µM for Ac-YDKPLSKKHAHSVNF [PDLI5]
rule not met

Please state whether IC50 is below 1000 µM for Ac-YDVVAVYPNAKVELV [PDLI4]
rule not met

Please state whether IC50 is below 1000 µM for Ac-YPPSSPTLSVSSTSL [KLH17]
rule not met

Please state whether IC50 is below 1000 µM for Ac-YLTGAPLATSDETSI [SEM4F]
rule met

Please state whether IC50 is below 1000 µM for Ac-YQSGPFIWIPSKEKL [DLG2]
rule not met

----------
# studyTarget: PSG G322A G335A (PSD-95)
# experimentalProtocol: FP displacement (competition) of FITC-15 AA CRIPT by library peptide, IC50 and Ki
# testSettings: read-out: Ki (µM), PSG G322A G335A; FP displacement of FITC-15 AA CRIPT probe by acetylated PSD library peptide
Label scheme for Ki: low = under 20 µM, mid = from 20 µM up to 300 µM, high = 300 µM and over

# bin lookup: classify CC(=O)N[C@@H](Cc1ccc(O)cc1)C(=O)N[C@@H](CCC(N)=O)C(=O)N[C@@H](CCCNC(=N)N)C(=O)NCC(=O)N[C@@H](CO)C(=O)N[C@@H](Cc1ccccc1)C(=O)N1CCC[C@H]1C(=O)N1CCC[C@H]1C(=O)N[C@@H](Cc1c[nH]c2ccccc12)C(=O)N[C@H](C(=O)N[C@@H](CCC(N)=O)C(=O)N[C@@H](CCC(N)=O)C(=O)N[C@H](C(=O)N[C@@H](CCCNC(=N)N)C(=O)N[C@H](C(=O)O)C(C)C)[C@@H](C)O)C(C)C [SYNGAP⍺1] by its Ki
low

# bin lookup: classify CC[C@H](C)[C@H](NC(=O)[C@H](Cc1ccccc1)NC(=O)[C@H](CO)NC(=O)[C@H](CCCNC(=N)N)NC(=O)[C@H](CCCCN)NC(=O)[C@@H]1CCCN1C(=O)[C@H](CCCCN)NC(=O)[C@H](C)NC(=O)[C@H](C)NC(=O)[C@@H](NC(=O)[C@H](Cc1ccc(O)cc1)NC(C)=O)[C@@H](C)O)C(=O)N[C@@H](CCC(=O)O)C(=O)N[C@@H](CO)C(=O)N[C@@H](CC(N)=O)C(=O)N[C@H](C(=O)O)C(C)C by its Ki
low

# bin lookup: classify CSCC[C@H](NC(=O)[C@H](CCC(N)=O)NC(=O)[C@H](CC(=O)O)NC(=O)[C@H](Cc1ccc(O)cc1)NC(=O)[C@H](CC(=O)O)NC(=O)[C@@H]1CCCN1C(=O)[C@H](CO)NC(=O)[C@H](CCCCN)NC(=O)[C@H](CC(C)C)NC(=O)[C@H](Cc1ccc(O)cc1)NC(C)=O)C(=O)N[C@@H](CO)C(=O)N[C@@H](CO)C(=O)N[C@@H](CO)C(=O)N1CCC[C@H]1C(=O)N[C@@H](CS)C(=O)O by its Ki
high

# bin lookup: classify CC(=O)N[C@@H](Cc1ccc(O)cc1)C(=O)N[C@@H](C)C(=O)N1CCC[C@H]1C(=O)N[C@@H](C)C(=O)N[C@H](C(=O)N[C@@H](CO)C(=O)N1CCC[C@H]1C(=O)N1CCC[C@H]1C(=O)N[C@@H](CCC(=O)O)C(=O)N[C@@H](CCCNC(=N)N)C(=O)N[C@@H](C)C(=O)N[C@@H](CC(C)C)C(=O)N[C@@H](CO)C(=O)N[C@@H](CCCCN)C(=O)N[C@@H](CC(C)C)C(=O)O)[C@@H](C)O by its Ki
high

# bin lookup: classify CC[C@H](C)[C@H](NC(=O)[C@H](Cc1ccc(O)cc1)NC(=O)[C@H](CO)NC(=O)CNC(=O)[C@H](CO)NC(=O)[C@H](CCC(N)=O)NC(=O)[C@H](Cc1ccc(O)cc1)NC(C)=O)C(=O)N[C@@H](Cc1c[nH]c2ccccc12)C(=O)N[C@H](C(=O)N1CCC[C@H]1C(=O)N[C@@H](C)C(=O)N[C@@H](CCCCN)C(=O)N[C@@H](CCC(=O)O)C(=O)N[C@@H](CCCCN)C(=O)N[C@@H](CC(C)C)C(=O)O)C(C)C by its Ki
high

# bin lookup: classify CC[C@H](C)[C@H](NC(=O)[C@H](CC(C)C)NC(=O)[C@H](C)NC(=O)[C@@H](NC(=O)[C@H](C)NC(=O)[C@H](Cc1ccc(O)cc1)NC(C)=O)C(C)C)C(=O)N[C@@H](C)C(=O)N[C@@H](Cc1ccc(O)cc1)C(=O)N[C@@H](CC(C)C)C(=O)N[C@@H](CO)C(=O)N[C@@H](CCCCN)C(=O)N[C@@H](CC(N)=O)C(=O)N[C@@H](CC(N)=O)C(=O)N[C@@H](Cc1c[nH]cn1)C(=O)N[C@@H](CC(C)C)C(=O)O [SYNG1] by its Ki
mid

# bin lookup: classify CC(=O)N[C@@H](Cc1ccc(O)cc1)C(=O)N[C@@H](CC(N)=O)C(=O)N[C@@H](CO)C(=O)N[C@H](C(=O)N[C@@H](CC(N)=O)C(=O)N[C@@H](CC(C)C)C(=O)N1CCC[C@H]1C(=O)N[C@@H](Cc1c[nH]cn1)C(=O)NCC(=O)N[C@@H](Cc1c[nH]cn1)C(=O)N[C@@H](CO)C(=O)N[C@H](C(=O)N[C@H](C(=O)N[C@@H](CCCNC(=N)N)C(=O)N[C@H](C(=O)O)C(C)C)[C@@H](C)O)[C@@H](C)O)[C@@H](C)O by its Ki
low

# bin lookup: classify CC[C@H](C)[C@H](NC(=O)[C@H](CO)NC(=O)[C@H](CCC(N)=O)NC(=O)[C@H](CCCNC(=N)N)NC(=O)[C@H](CCCCN)NC(=O)[C@H](CO)NC(=O)[C@H](CC(=O)O)NC(=O)[C@@H]1CCCN1C(=O)[C@H](Cc1ccc(O)cc1)NC(C)=O)C(=O)N[C@@H](CC(C)C)C(=O)N[C@@H](Cc1ccccc1)C(=O)N[C@@H](CO)C(=O)N[C@H](C(=O)N[C@@H](CCC(=O)O)C(=O)N[C@H](C(=O)O)C(C)C)[C@@H](C)O by its Ki
low

# bin lookup: classify CSCC[C@H](NC(=O)[C@H](CC(N)=O)NC(=O)[C@H](CCCCN)NC(=O)[C@H](CC(C)C)NC(=O)[C@@H](NC(=O)[C@H](CC(=O)O)NC(=O)[C@H](Cc1ccc(O)cc1)NC(C)=O)C(C)C)C(=O)N[C@H](C(=O)N[C@@H](CC(=O)O)C(=O)N[C@@H](CCCCN)C(=O)N[C@@H](C)C(=O)N1CCC[C@H]1C(=O)N1CCC[C@H]1C(=O)NCC(=O)N[C@H](C(=O)O)C(C)C)[C@@H](C)O by its Ki
high

# bin lookup: classify CC[C@H](C)[C@H](NC(=O)[C@@H]1CCCN1C(=O)[C@H](Cc1ccc(O)cc1)NC(C)=O)C(=O)NCC(=O)NCC(=O)N[C@@H](CO)C(=O)N[C@@H](CC(C)C)C(=O)N[C@@H](CC(N)=O)C(=O)N[C@@H](CO)C(=O)N[C@H](C(=O)N[C@H](C(=O)N[C@@H](CC(=O)O)C(=O)N[C@@H](CO)C(=O)N[C@@H](C)C(=O)N[C@@H](CC(C)C)C(=O)O)[C@@H](C)O)[C@@H](C)O by its Ki
mid
